Recorded composite z-score for the following compounds
# target.of.assay: Follistatin (Homo sapiens) (UniProt P19883)
# Sequence (P19883 whole entry, looked up): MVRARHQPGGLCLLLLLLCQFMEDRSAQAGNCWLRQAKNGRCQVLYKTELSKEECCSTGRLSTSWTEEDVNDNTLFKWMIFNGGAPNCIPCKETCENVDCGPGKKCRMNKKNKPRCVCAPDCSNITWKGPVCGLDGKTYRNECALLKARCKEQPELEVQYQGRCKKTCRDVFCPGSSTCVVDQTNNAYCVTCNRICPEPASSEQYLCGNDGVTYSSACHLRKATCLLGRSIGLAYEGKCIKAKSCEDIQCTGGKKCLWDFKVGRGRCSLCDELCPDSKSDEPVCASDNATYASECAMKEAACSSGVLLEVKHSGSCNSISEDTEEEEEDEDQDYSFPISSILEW
# protocol.notes: follistatin binders on small-molecule microarrays, primary screen, biochemical, small-molecule microarray, 635/667 nm fluorescence (AID 1132)
# conditions.used: FST binding, 635 nm fluorescence, higher = more signal
outcome.measure: composite z-score

{"smiles.repr": "CC(C)[Si](OCC[C@H]1O[C@]2(C(=O)N(Cc3ccccc3)c3ccccc32)[C@@H](C)[C@@H]1[Si](C)(C)O)(C(C)C)C(C)C", "outcome.measure": "composite z-score", "obs.value": 0.122}
{"smiles.repr": "CC(C)[Si](OCCCNS(=O)(=O)c1ccc(Br)cc1)(C(C)C)C(C)C", "outcome.measure": "composite z-score", "obs.value": 0.928}
{"smiles.repr": "O=C1O[C@@H](c2ccccc2)[C@@H](c2ccccc2)N2[C@@H](c3ccc(O)cc3)[C@]3(C(=O)Nc4ccccc43)[C@@H](C(=O)N3CCN(c4ncccn4)CC3)[C@H]12", "outcome.measure": "composite z-score", "obs.value": 0.169}
{"smiles.repr": "O=C1c2ccccc2[C@@]2(Cc3ccccc3N(CC(F)(F)F)C2=O)[C@H](c2ccc(CO)cc2)N1C1CCCCC1", "outcome.measure": "composite z-score", "obs.value": 1.06}
{"smiles.repr": "COCCOC(=O)N1C(=O)[C@@]2(c3ccccc31)[C@H](C(=O)N1CCc3cc(OC)c(OC)cc3C1)[C@H]1C(=O)O[C@H](c3ccccc3)[C@H](c3ccccc3)N1[C@@H]2c1ccccc1OCCO", "outcome.measure": "composite z-score", "obs.value": 1.13}
{"smiles.repr": "COCCOC(=O)N1C(=O)[C@@]2(c3cc(C#CCC(C(=O)OC)C(=O)OC)ccc31)[C@H](c1ccccc1OCCO)N1[C@H](c3ccccc3)[C@H](c3ccccc3)OC(=O)[C@H]1[C@@H]2C(=O)N1CCCCCCC1", "outcome.measure": "composite z-score", "obs.value": 1.51}

###

# Tested on: Lefty1
# protocol.notes: Lefty1 binders on small-molecule microarrays, primary screen, biochemical, small-molecule microarray, 635/667 nm fluorescence (AID 1139)
# conditions.used: small-molecule microarray binding, fluorescence 635/667; higher = more signal
Recorded composite z-score for the following compounds

{"compound": "CO[C@H]1O[C@H](CO)[C@@H](OC(=O)Nc2ccc(Oc3ccccc3)cc2)[C@H](OC(=O)Nc2ccccc2-c2ccccc2)[C@H]1OC(=O)Nc1ccccc1-c1ccccc1", "composite z-score": 0.62}
{"compound": "O=C1OCC=C[C@H]2OC34C=CCN(Cc5ccccc5)C(=O)[C@H]3N(CCO)C(=O)[C@@H]4[C@@H]12 (stereo partly drawn)", "composite z-score": 0.0323}
{"compound": "COc1cc2c(cc1OC)CN(C(=O)[C@@H]1[C@H]3C(=O)O[C@H](c4ccccc4)[C@H](c4ccccc4)N3[C@H](c3ccccc3OCCO)[C@@]13C(=O)Nc1ccccc13)CC2", "composite z-score": 0.0595}

###

# target.of.assay: Calmodulin-1 (Homo sapiens)
# protocol.notes: calcium-bound CALM1 binders on microarrays, profiling panel, artefact control for SMM control-protein annotation, biochemical, small-molecule microarray, Cy5-labelled CALM1, plus calcium (AID 1112);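 also: score merges spot fluorescence with signal to noise from triplicate slides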
# conditions.used: Cy5-CALM1 binding fluorescence, higher = more signal
Label Fulfilled when composite z-score >= 0.2; otherwise Not fulfilled.

{"compound": "Cc1ccc(S[C@]2(C(=O)O)CC(=O)N(Cc3ccccc3)[C@@H]2c2ccc(CO)cc2)cc1", "target.of.assay": "Calmodulin-1 (Homo sapiens)", "assigned.class": "Fulfilled"}
{"compound": "Cc1ccc(S[C@]2(C(=O)O)CC(=O)N(Cc3cc(C(F)(F)F)cc(C(F)(F)F)c3)[C@@H]2c2ccc(CO)cc2I)cc1", "target.of.assay": "Calmodulin-1 (Homo sapiens)", "assigned.class": "Fulfilled"}
{"compound": "CCCCCCc1nc(-c2cc(C)c(OC)c(C)c2)cc2c1[Si](C(C)C)(C(C)C)O[C@H]2c1ccccc1", "target.of.assay": "Calmodulin-1 (Homo sapiens)", "assigned.class": "Fulfilled"}
{"compound": "CSCC[C@@H]1NC(=O)CC=C[C@@H](C)COC(=O)[C@H](CCSC)NC(=O)CC=C[C@@H](C)COC1=O", "target.of.assay": "Calmodulin-1 (Homo sapiens)", "assigned.class": "Not fulfilled"}
{"compound": "C=CC[C@]1(C(N)=O)N=C(c2ccc(OCCCO)cc2)O[C@H]1c1ccccc1CN=[N+]=[N-]", "target.of.assay": "Calmodulin-1 (Homo sapiens)", "assigned.class": "Fulfilled"}
{"compound": "C=CC[C@@]1(C(=O)NCC(O)CO)N=C(c2ccc(OCCCO)cc2)O[C@@H]1c1ccccc1CN=[N+]=[N-] (stereo partly drawn)", "target.of.assay": "Calmodulin-1 (Homo sapiens)", "assigned.class": "Not fulfilled"}
{"compound": "CC(=O)Nc1ccc([C@H]2[C@H](C)CC[C@H]3C(=O)N4[C@@H](CC[C@@H](C)[C@@H]4c4ccc(NC(C)=O)cc4)C(=O)N32)cc1", "target.of.assay": "Calmodulin-1 (Homo sapiens)", "assigned.class": "Not fulfilled"}
{"compound": "COc1cccc([C@@H]2[C@@H](C)CC[C@H]3C(=O)N(C)[C@@H](C(C)C)C(=O)N23)c1", "target.of.assay": "Calmodulin-1 (Homo sapiens)", "assigned.class": "Not fulfilled"}

The reported measurements were obtained from PubChem BioAssay.
